Target: T1, human CLDN6 fused to GFP, expressed on engineered HEK293T cells (HEK293T-CLDN6-mGFP) (human, UniProt P56747 1-220)
T1 construct: It calls residues 1-21 a signal peptide; also called Claudin-6; HEK293T-CLDN6-mGFP Artificial CLDN6+; not shown: mGFP tag
T1 sequence: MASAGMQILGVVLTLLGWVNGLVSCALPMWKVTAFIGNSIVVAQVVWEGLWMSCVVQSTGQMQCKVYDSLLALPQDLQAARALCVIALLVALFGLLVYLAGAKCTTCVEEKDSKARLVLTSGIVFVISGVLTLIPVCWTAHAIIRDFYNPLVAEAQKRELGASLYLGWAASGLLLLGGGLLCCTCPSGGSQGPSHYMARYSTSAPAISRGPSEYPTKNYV
Test: FACS, 0.3 µg Ab, 293T clone with human CLDN6
Everything with FACS fluorescence lower than 20000 is n; everything else, including exactly 20000, is y.

Hi, just wondering whether AB4-7 (antibody, V domains shown, also called Humanized AB 4-7) VH: QVQLVQSGAEVKKPGASVKMSCKASGYTFTSYTMHWIRQAPGQGQEWIGYINPSSTYTHYAQKFQGRATLTADKSTSTAYMELSSLRSEDTAVYYCSRGELGGFAYWGQGTLVTVSS VL: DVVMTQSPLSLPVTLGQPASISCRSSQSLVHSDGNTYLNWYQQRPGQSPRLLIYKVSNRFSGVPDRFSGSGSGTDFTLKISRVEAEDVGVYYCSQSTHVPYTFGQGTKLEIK shows FACS fluorescence of 20000 or higher.
n

Quick check, FACS fluorescence >= 20000? AB1-11 (antibody, V domains shown, Humanized; also called Humanized AB 1-11) VH: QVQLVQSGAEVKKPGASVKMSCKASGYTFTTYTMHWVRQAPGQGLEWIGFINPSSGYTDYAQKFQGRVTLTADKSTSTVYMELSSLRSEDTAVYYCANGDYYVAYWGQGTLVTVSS VL: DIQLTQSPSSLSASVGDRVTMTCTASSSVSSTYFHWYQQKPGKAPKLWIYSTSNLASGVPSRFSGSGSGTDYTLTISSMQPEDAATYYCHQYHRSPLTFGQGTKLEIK
y

// inclusive: FACS fluorescence at least 20000? input: AB1-3 (antibody, V domains shown, also called Humanized AB 1-3) VH: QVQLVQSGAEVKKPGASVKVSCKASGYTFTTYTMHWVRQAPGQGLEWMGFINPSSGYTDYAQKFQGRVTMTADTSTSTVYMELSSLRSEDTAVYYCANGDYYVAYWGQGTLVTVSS VL: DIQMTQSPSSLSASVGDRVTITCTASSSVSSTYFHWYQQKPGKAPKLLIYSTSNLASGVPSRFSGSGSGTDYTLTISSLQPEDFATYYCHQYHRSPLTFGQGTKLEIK
y

State whether the measured FACS fluorescence reaches 20000, counting equality as reaching it, for AB11-3 (antibody, V domains shown, also called Humanized AB 11-3) VH: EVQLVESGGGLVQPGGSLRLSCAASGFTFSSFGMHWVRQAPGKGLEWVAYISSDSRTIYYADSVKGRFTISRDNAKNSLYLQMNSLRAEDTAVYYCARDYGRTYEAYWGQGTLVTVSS VL: DIVLTQSPDSLAVSLGERATINCRASKSVSTSGYSYIHWYQQKPGQPPKLLIYLASNLESGVPDRFSGSGSGTDFTLTISSVQAEDVAVYYCQHSRELPLTFGQGTKLELK
n

Does FACS fluorescence meet or surpass 20000 for AB3-5 (antibody, V domains shown, also called Humanized AB 3-5) VH: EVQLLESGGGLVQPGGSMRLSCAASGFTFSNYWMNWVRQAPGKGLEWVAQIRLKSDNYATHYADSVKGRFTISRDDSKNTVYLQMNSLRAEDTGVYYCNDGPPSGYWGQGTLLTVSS VL: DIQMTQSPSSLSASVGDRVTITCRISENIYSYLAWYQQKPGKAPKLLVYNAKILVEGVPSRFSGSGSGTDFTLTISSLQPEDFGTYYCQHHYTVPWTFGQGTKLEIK ?
n
